These measurements were taken from the supplement of paper PMC12764529.

Listing of entries alongside the reported folding stability dG unfold.
experiment: folding stability dG unfold from chymotrypsin proteolysis; higher = more stable
Expressed in kcal/mol, but write only the number.

Previously resolved entries follow.
>  <Monomer Sequence>
SAGGSAGGSAGGSMETVEVTEVSFDPSKGTRFVKTTVTRKDEKGNWVEKEEWITEPVLGSAGGSAGGSAGGS [r4_85_JUSTAS]

>  <folding stability dG unfold, kcal/mol>
0.338

$$$$
>  <Monomer Sequence>
SAGGSAGGSASEIMDEFPNLEIDNVNPDHGMMIIKWPDGWYWRVNVGNGEIEPVSPEDLEDMSAGGSAGGSA [r18_381_TrROS]

>  <folding stability dG unfold, kcal/mol>
0.983

$$$$
>  <Monomer Sequence>
SPKVTLTLEGKVITFPAPLAEKLLGELQRKGYKVKILSVEPDPETDEIYLVMEVEPLKPPPLPPPNPLLESA [r9_448_TrMRF]

>  <folding stability dG unfold, kcal/mol>
2.28

$$$$

Assign folding stability dG unfold to the following record: SAGGMTIEEILNMSIEEVKALAEEKGLKEVVITLPDGSKITIKVNKDGSIEVTVTNKDGSKKTFTFPSAGGS [r8_51_TrROS_Hall]
3.97

Assign folding stability dG unfold to the following record: SAKKTITLTITNEDGSTFTITITDNKITITNKDNGLVAEAEILPDGTIKLKIYNKNGELIAEITLKIKDSAG [r14_213_TrROS_Hall]
4.32

Assign folding stability dG unfold to the following record: SASASQTTIEYTVPVPAGTSPDEPLTLTVTLPDKEIPIEVGTLENLPPDATVTITLDTTEPTFTVTLTPSAG [r14_554_JUSTAS]
-0.451

Assign folding stability dG unfold to the following record: SAGKVKLTIMIHPMRKNGKPRYYVMVKIEIPGGPKAEIMFPFDSPEQAKNLLEDLGLKVEPEDISIMRWSAG [r5_233_TrROS]
1.94

====

assay: folding stability dG unfold (combined trypsin and chymotrypsin); higher = more stable
Respond with 1.0 for folding stability dG unfold values of 2 kcal/mol and above, 0.0 for values below.

See these solved cases before continuing.
>  <Monomer Sequence>
MTRTIVAEDMSIEEVKERIEALGAAEPEKGTTVVVEYPGNPEELKKLPIDKIEPREEPERESLVATKTFPAS [r1_467_JUSTAS]

>  <Discrete Label>
0.0

$$$$
>  <Monomer Sequence>
SAGMDLKIEEEEDPLSGSRLFRIELRDPDGKYNLTVVVLKENGKIKAVLVLRENTGEPLTLPELVELLESAG [r5_872_TrMRF]

>  <Discrete Label>
1.0

$$$$
>  <Monomer Sequence>
SAGGSAGGSAGNPPNKPKPIIKVVPFRYRFYIPETGSVIEIDIYVFEDDTVKIKIKTYPLSAGGSAGGSAGG [r11_883_TrMRF]

>  <Discrete Label>
1.0

$$$$
>  <Monomer Sequence>
SAGGSDKEEKEKEIDIRIVQVPWDDARELAEESDDPVIFMLPDGHIHIFKGDGKVEPFPIPDPEEFSAGGSA [r2_34_TrROS]

>  <Discrete Label>
0.0

$$$$
>  <Monomer Sequence>
SAGGSAGGSAGGSDKGQPRVEIPMPFFMPNPNYVIRITMEIDLDPNGQIREIDVEVYKFSAGGSAGGSAGGS [r4_75_TrROS]

>  <Discrete Label>
1.0

$$$$

State whether the measured folding stability dG unfold reaches 2 kcal/mol, counting equality as reaching it, for SAGGSAGGMFIALVTITLPNGEKITDLAFFESPEKIYVLNLKDGKWSEPKVEDIKVVPLEELLFSAGGSAGG [r6_558_TrMRF]
1.0

State whether the measured folding stability dG unfold reaches 2 kcal/mol, counting equality as reaching it, for SAGPAPGAPWEKVEIVAEAWVPTAGGKAVPVVLARAPDGSLLATFPDGTVRVVVPGAGPEVTVELPLASAGG [r19_199_TrMRF]
0.0

State whether the measured folding stability dG unfold reaches 2 kcal/mol, counting equality as reaching it, for SSDDKEEQKKRQKAQAKPKPKMEPVWVPIEVRDPDNGRPFEIPVRMYRTPNGKIEPLPEEELKDWAKDLFSA [r9_1056_TrROS]
0.0

State whether the measured folding stability dG unfold reaches 2 kcal/mol, counting equality as reaching it, for SAGGSAGGMTIPAEKIKGKPIKVLVDRGNAIFPLKEAKVKTKPDGRVELYVPKELGEDTKIIAGSAGGSAGG [r6_628_TrMRF]
0.0

State whether the measured folding stability dG unfold reaches 2 kcal/mol, counting equality as reaching it, for SSYTVDVTFTDPSPPKPTHRTLSSIEDAIAEAKAELPPGSVATITVTYPDGSTETITIVGDGVVETKKTASA [r9_482_JUSTAS]
0.0

State whether the measured folding stability dG unfold reaches 2 kcal/mol, counting equality as reaching it, for SAGGDPDEIKKVIITARIYRPDPDGNIHTATIPIIIEGPLDEVIEKVAKEIEEAFGTKIVEITVEKGSAGGS [r16_511_TrMRF]
0.0

State whether the measured folding stability dG unfold reaches 2 kcal/mol, counting equality as reaching it, for SAGGGSISISLPAEELKALSPEDVIEVTAPDGTKIKAKPVKKGDTYPVTAEDPNNPKNATEMGTATLPSAGG [r13_745_JUSTAS]
0.0

State whether the measured folding stability dG unfold reaches 2 kcal/mol, counting equality as reaching it, for SAGGSAGGSAGPVIRIPDATVTTDPATGTLTVTTAGRTVTVPPGATVTVLPDGTVVVERPSAGGSAGGSAGG [r17_34_JUSTAS]
0.0

State whether the measured folding stability dG unfold reaches 2 kcal/mol, counting equality as reaching it, for SAGGSAGGIKAPDGQEYHIILFPITIPMEQKVERPMPDGDPRPETRTVSIKIPIWFAIPPGQKISAGGSAGG [r6_526_TrROS]
0.0

State whether the measured folding stability dG unfold reaches 2 kcal/mol, counting equality as reaching it, for SAGGSAGGSPETVTLTLTVTVKTVTLDPETGELTTTTHTVTLTLTLSKEDLEALLKSPELKKLSAGGSAGGS [r12_1015_TrROS_Hall]
1.0

State whether the measured folding stability dG unfold reaches 2 kcal/mol, counting equality as reaching it, for EEWYIIQIKIEYWGPNGKEREIDIMVLIPPEQMTPDQLKQVKEIAREIAENLQENGYNIEINVEIIPLDDMS [r1_221_TrROS]
1.0

State whether the measured folding stability dG unfold reaches 2 kcal/mol, counting equality as reaching it, for SAGGSAGGSKLKIPIIRKFKPDEPLPTAEDVKAILEELGLDIKEVKVTYFPEYGYAIAEVEVSSAGGSAGGS [r12_1052_TrMRF]
0.0

State whether the measured folding stability dG unfold reaches 2 kcal/mol, counting equality as reaching it, for SAGGSVVTGVDEEELRAVAEALRAAGHTLADVRIERYPEDGTYRMTVTLVDPATAAPLADVLMVAKASAGGS [r16_750_JUSTAS]
0.0

====

assay: folding stability dG unfold (combined trypsin and chymotrypsin); higher = more stable
Quantity Measured: folding stability dG unfold (kcal/mol)
Expressed in kcal/mol, but write only the number.

Previously resolved entries follow.
>  <Monomer Sequence>
SAGGSMETTTLSSTPAELIATVEAEAAAAGKTISEITVTEDPATGLATVPVTIEITPAPALAPAARRSAGGS [r16_584_JUSTAS]

>  <Result Unit>
kcal/mol

>  <folding stability dG unfold>
0.249

$$$$
>  <Monomer Sequence>
SAGGSAGGSAMKPGEVIEIEITDKETGKKIKAEIVLKDGKLYIKIYNENGELIAEIEIEIKDSAGGSAGGSA [r18_264_TrROS_Hall]

>  <Result Unit>
kcal/mol

>  <folding stability dG unfold>
3.42

$$$$
>  <Monomer Sequence>
SAGGLKIVETKTEPEIGKRYVVIEVYKPETGKPILYVVPLDLEKGENSPEAVAKAILKELKLPPGVKASAGG [r13_362_TrMRF]

>  <Result Unit>
kcal/mol

>  <folding stability dG unfold>
1.24

$$$$
>  <Monomer Sequence>
SAGGAPVHLDTTATTIEPLPTGGPVLRVETRFPDGSTRTGDFASREELLARLEASPDAATIRLAAVASAGGS [r16_757_JUSTAS]

>  <Result Unit>
kcal/mol

>  <folding stability dG unfold>
0.203

$$$$
>  <Monomer Sequence>
SAGGSAGGSAGMRTITIPIPDGDPENIEEQARELADAFPDLKGKKVNIEYHKDGWITITVSAGGSAGGSAGG [r17_324_TrROS]

>  <Result Unit>
kcal/mol

>  <folding stability dG unfold>
1.15

$$$$
>  <Monomer Sequence>
SAGGSAGGSAGGMKTIVFTTLSPEEAQALADELKAKGVDVEVTYEPVPVTPRPLPLNRLSAGGSAGGSAGGS [r10_361_JUSTAS]

>  <Result Unit>
kcal/mol

>  <folding stability dG unfold>
2.57

$$$$

Assign folding stability dG unfold to the following record: SAGGSAGGSAGGSGMTLPIPLSELTTEEIRELTKPDEDLVIKTEEDEPVVIPYGEIKPESAGGSAGGSAGGS [r4_382_JUSTAS]
0.204

Assign folding stability dG unfold to the following record: SAGGSAGGSAMKVLVTVTLTSPDGTKTTLTEEADPAELKGVLEAALPWTVETVTVYPAEELLSAGGSAGGSA [r18_107_JUSTAS]
1.04

Assign folding stability dG unfold to the following record: SAGGSAGGWIPVEELAKEFGFSPDFIEQLMKNGYKIEYEYHEPGWVRLSVENPDNGKKREITFPSAGGSAGG [r6_969_TrROS]
1.92

Assign folding stability dG unfold to the following record: SAGGSAGGSVEKLKKALEKLGIKVENVKIEVKTNKNGKKTVTIYVNGKKLSKEEIKKALKEIKSAGGSAGGS [r12_175_TrROS_Hall]
4.24

Assign folding stability dG unfold to the following record: SAGGMVYRVKVKITFPDGKTYYIPFPNFKSFEEILNVLKKLGFENLENIPIEVIEIEPIPEVPEELLKSAGG [r13_493_TrMRF]
2.74

Assign folding stability dG unfold to the following record: SAGGSASPVLTTVTFPGSPEELEAYAAEVRAAGTLLSVSFSPSPDPSYYTITLQVRAPDGTYFTAESAGGSA [r15_177_JUSTAS]
1.39

Assign folding stability dG unfold to the following record: SAGGGLLEELARELGFEAEIEEIPETGILRITLRPEDGSEVEITVKVTRIPGLGEVKLEVLEVKVRPTSAGG [r13_936_TrMRF]
3.33
